Data origin, for the record: patent US20120328625A1

# % Inhibition of Gli1 reporter, Conditioned Media N = 2, 20 µg/ml annotations
- MEASURED ON: Shh-N in conditioned medium (human, UniProt Q15465 24-197, N-terminal palmitoyl modification; lacks the C-terminal cholesterol moiety)
- PROTOCOL NOTES: cell-based or functional assay
Numeric answer only, unit % assumed.

| BINDER | UNITS OF MEASURE | OBS VALUE |
| --- | --- | --- |
| 1G1 (antibody, V domains shown, fully human XenoMouse hybridoma antibody; also called MAb 1G1) VH: EVQLVESGGGLVKPGGSLRLSCAASGFTFSSYSMNWVRQAPGKGLEWVSSFSSSSSYIYYADSVKGRFTISRDNAKNSLYLQMNSLRAEDTAVYYCARDRGDYVDYYYGMDVWGQGTTVTVSS VL: SYELTQPPSVSVSPGQTASITCSGDKLDYKYICWYQQKPGQSPVLVIYQDIKRPSGIPERFSGSNSGNTATLTISGTQAMDEADYYCQAWDSNTPLVFGGGTKLTVL | % | 61 |

Shift focus to the following entry.
Request: Could you please provide reported % Inhibition of Gli1 reporter, Conditioned Media N = 2, 20 µg/ml for 1H10 (antibody, V domains shown, fully human XenoMouse hybridoma antibody; tested as hybridoma supernatant and as purified antibody; also called MAb 1H10) VH: QVQLVESGGGVVQPGRSLRLSCAASGFTFSSYGMHWVRQAPGKGLEWVAVIWNDGSNEYYADSVKGRFTISRDNSKNTLYLQMNSLRAEDTAVYYCARDLYYYGSGSPFDDWGQGTLVTVSS VL: EIVMTQSPGTLSVSPGERATLSCRASQSVGSNLAWYQQKPGQAPRLLIFGVSIRATGVPARFSGSGSGTEFTLTISSLQSEDFAVYYCQQYNDWPRPGFGGGTKVEIK ? Thanks!
Response: 24
